test system: morningglory; test: Test C pre-/postemergence herbicide test; type: in vivo, Ipomoea coccinea; design: key: 0 = no effect, 100 = complete control; details: 125 g ai/ha; scale 0 (no effect) to 100 (complete control); visual, 12 to 14 days; preemergence
Excerpt: […]
ASSAY_METRIC: Plant response rating, Morningglory
Just the number, please, no unit attached.

>  <COMPOUND>
CC(=NO)c1cccc(NC(=O)c2cc(C(C)(C)C)nn2CCF)c1 [Compound 115]

>  <TESTED_TARGET>
morningglory

>  <RECORDED_NUMBER>
30

$$$$
>  <COMPOUND>
C=CCNC(=O)c1cccc(NC(=O)c2sc(C(C)(C)C)nc2CC)c1 [Compound 207]

>  <TESTED_TARGET>
morningglory

>  <RECORDED_NUMBER>
0

$$$$
>  <COMPOUND>
CCn1nc(C(C)(C)C)cc1C(=O)Nc1cccc2c1CCN(C1CC1)C2=O [Compound 64]

>  <TESTED_TARGET>
morningglory

>  <RECORDED_NUMBER>
0

$$$$

Q: Param item = CC(=NO)c1cccc(NC(=O)c2sc(C(C)(C)C)nc2C)c1 [Compound 195] ; retrieve measured Plant response rating, Morningglory.
Result: 0

Q: Param item = CCOC(=O)c1cccc(NC(=O)c2cc(C(C)(C)C)nn2CC)c1C [Compound 88] ; retrieve measured Plant response rating, Morningglory.
Result: 0

Q: Param item = C#CCNC(=O)c1cccc(NC(=O)c2cc(C(C)(C)C)nn2CC)c1 [Compound 47] ; retrieve measured Plant response rating, Morningglory.
Result: 0

Q: Param item = CCn1nc(C(C)(C)C)cc1C(=O)Nc1cccc(SC(F)(F)F)c1 [Compound 130] ; retrieve measured Plant response rating, Morningglory.
Result: 0

Q: Param item = CCOC(=O)c1cc(NC(=O)c2cc(C(C)(C)C)nn2CC)ccc1OC [Compound 96] ; retrieve measured Plant response rating, Morningglory.
Result: 50

Q: Param item = C=CCNC(=O)c1cccc(NC(=O)c2cc(C(C)(C)C)nn2CC)c1 [Compound 46] ; retrieve measured Plant response rating, Morningglory.
Result: 0

* * *

Entries and their measured Plant response rating (0 = no effect, 100 = complete control), Corn follow.
tested on: corn; assay: Test C pre-/postemergence herbicide test; assay type: in vivo, Zea mays; details: 62 g ai/ha; preemergence
Source text: […]
Just the number, please, no unit attached.

Worked examples follow.
>  <CPD_SMILES>
CCOC(=O)c1cc(NC(=O)c2cc(C(C)(C)C)nn2CC)ccc1OC

>  <RECORDED_NUMBER>
15

$$$$
>  <CPD_SMILES>
C=CCNC(=O)c1cccc(NC(=O)c2cc(C(C)(C)C)nn2CC)c1

>  <RECORDED_NUMBER>
0

$$$$
>  <CPD_SMILES>
CCn1nc(C(C)(C)C)cc1C(=O)Nc1cccc(SC)c1

>  <RECORDED_NUMBER>
0

$$$$

Q: Param item = "CCOC(=O)c1cccc(NC(=O)c2cc(C(C)(C)C)nn2CC)c1C" ; retrieve measured Plant response rating (0 = no effect, 100 = complete control), Corn.
Result: 0

Q: Param item = "C#CCNC(=O)c1cccc(NC(=O)c2cc(C(C)(C)C)nn2CC)c1" ; retrieve measured Plant response rating (0 = no effect, 100 = complete control), Corn.
Result: 0

* * *

test system: giant foxtail; experiment: Test B pre-/postemergence herbicide test; format: in vivo, Setaria faberi; details: postemergence, 125 g ai/ha; visual rating, scale 0 (no effect) to 100 (complete control)
ASSAY_METRIC: Foxtail, Giant plant response rating
Just the number, please, no unit attached.

Worked examples follow.
>  <CPD_SMILES>
CCNC(=O)c1cccc(NC(=O)c2nn(C(C)(C)C)cc2Cl)c1

>  <RECORDED_NUMBER>
0

$$$$
>  <CPD_SMILES>
CCOC(=O)c1cc(NC(=O)c2cc(C(C)(C)C)nn2CC)c(F)cc1F

>  <RECORDED_NUMBER>
20

$$$$
>  <CPD_SMILES>
CCn1nc(C(C)(C)C)cc1C(=O)Nc1cccc(C(=O)OC(C)(C)C)c1

>  <RECORDED_NUMBER>
10

$$$$

Q: Param item = "CC(C)NS(=O)(=O)c1cccc(NC(=O)c2cc(C(C)(C)C)nn2C)c1" ; retrieve measured Foxtail, Giant plant response rating.
Result: 0

* * *

Entries and their measured Plant response rating, Lambsquarters follow.
test system: lambsquarters; assay: Test B pre-/postemergence herbicide test; type: in vivo, Chenopodium album; conditions: Postemergence, 500 g ai/ha; visual rating after 13 to 15 days, scale 0 (no effect) to 100 (complete control)
Just the number, please, no unit attached.

>  <MOLECULE>
CCNC(=O)c1cc(NC(=O)c2cc(C(C)(C)C)nn2CC)ccc1C [Compound 68]

>  <Plant response rating, Lambsquarters>
10

$$$$
>  <MOLECULE>
C#CCNC(=O)c1cccc(NC(=O)c2cc(C(C)(C)C)nn2CC)c1 [Compound 47]

>  <Plant response rating, Lambsquarters>
90

$$$$
>  <MOLECULE>
CCn1nc(C(C)(C)C)cc1C(=O)Nc1cccc(C(=O)OCC(F)(F)F)c1 [Compound 83]

>  <Plant response rating, Lambsquarters>
60

$$$$
>  <MOLECULE>
CCn1nc(C(C)(C)C)cc1C(=O)Nc1cccc(C(=O)OC(C)(C)C)c1 [Compound 98]

>  <Plant response rating, Lambsquarters>
30

$$$$

Q: Form: Entry = CCOC(=O)c1cccc(NC(=O)c2cc(C(C)(C)C)nn2CC)c1C [Compound 88] | System = lambsquarters | Plant response rating, Lambsquarters = ____
Result: 100

Q: Form: Entry = CCN(CC)C(=O)c1cc(NC(=O)c2cc(C(C)(C)C)nn2CC)ccc1F [Compound 59] | System = lambsquarters | Plant response rating, Lambsquarters = ____
Result: 90

* * *

Entries and their measured Plant response rating (0 = no effect, 100 = complete control), Pigweed follow.
system: pigweed; assay: Test C pre-/postemergence herbicide test; assay type: in vivo, Amaranthus retroflexus; details: 125 g ai/ha; preemergence
Just the number, please, no unit attached.

>  <COMPOUND>
C=CCNC(=O)c1cccc(NC(=O)c2nn(C(C)(C)C)nc2CC)c1

>  <RECORDED_NUMBER>
100

$$$$
>  <COMPOUND>
Cc1nn(C(C)(C)C)nc1C(=O)Nc1cccc(C(=O)N2CC=CC2)c1

>  <RECORDED_NUMBER>
100

$$$$

Q: Param item = "CCc1nn(C(C)(C)C)nc1C(=O)Nc1cccc(C(=S)N(C)C)c1" ; retrieve measured Plant response rating (0 = no effect, 100 = complete control), Pigweed.
Result: 100

Q: Param item = "CCc1nn(C(C)(C)C)nc1C(=S)Nc1cccc(C(=S)N(C)C)c1" ; retrieve measured Plant response rating (0 = no effect, 100 = complete control), Pigweed.
Result: 100

Q: Param item = "CCc1nn(C(C)(C)C)nc1C(=O)Nc1cccc(C(=O)N(C)CC)c1" ; retrieve measured Plant response rating (0 = no effect, 100 = complete control), Pigweed.
Result: 100

Q: Param item = CCC1=NN(C(C)(C)C)CC1C(=O)Nc1cc(C(=O)N(C)C)ccc1F (racemic) ; retrieve measured Plant response rating (0 = no effect, 100 = complete control), Pigweed.
Result: 90

* * *

Entries and their measured Plant response rating, Corn follow.
test system: corn; experiment: Test C pre-/postemergence herbicide test; format: in vivo, Zea mays; conditions: 125 g ai/ha; scale 0 (no effect) to 100 (complete control); visual, 12 to 14 days; preemergence
Just the number, please, no unit attached.

>  <CPD_SMILES>
CCn1nc(C(C)(C)C)cc1C(=O)Nc1cccc(C(N)=O)n1

>  <TESTED_TARGET>
corn

>  <Plant response rating, Corn>
70

$$$$

Q: Form: Entry = "CCCN1CCc2c(NC(=O)c3cc(C(C)(C)C)nn3CC)cccc2C1=O" | System = corn | Plant response rating, Corn = ____
Result: 0

Q: Form: Entry = "CCNC(=O)c1cccc(NC(=O)c2cc(C3(C)CC3)nn2CC)c1" | System = corn | Plant response rating, Corn = ____
Result: 10

Q: Form: Entry = "CC(=NO)c1cccc(NC(=O)c2cc(C(C)(C)C)nn2CCF)c1" | System = corn | Plant response rating, Corn = ____
Result: 10

Q: Form: Entry = "C#CCn1nc(C(C)(C)C)cc1C(=O)Nc1cccc(C(=O)NCC)c1" | System = corn | Plant response rating, Corn = ____
Result: 0

Q: Form: Entry = "CCOC(=O)c1cccc(NC(=O)c2cc(C(C)(C)C)nn2CC)c1C" | System = corn | Plant response rating, Corn = ____
Result: 5
